# System: P. falciparum D10 (CQ-sensitive) strain
# method_summary: P. falciparum drug susceptibility assay
# Type: cell-based
# experimental_parameters: IC50(NHDF)/IC50(D10)
readout: SID10

c1ccc2c(c1)[nH]c1ccncc12: 16.4
Cc1ccn(C)c2nc3ccccc3c1-2: 2.6
c1ccc2c(c1)[nH]c1cnccc12: 12.0
Cn1cccc2nc3cccnc3c1-2: 13.5

====

# Test system: P. falciparum D10 (CQ-sensitive) strain
# method_summary: P. falciparum drug susceptibility assay
# Assay type: cell-based
# experimental_parameters: Plasmodium falciparum, D10, 72 h, read-out: P. falciparum IC50 D10
readout: IC50

Cn1cccc2nc3cccnc3c1-2 [Compound 12, 4-methyl-4H-4,5-diazacarbazole]: 3.16 µg/mL
c1ccc2c(c1)[nH]c1ncccc12 [Compound 1, 9H-1-azacarbazole]: > 5 µg/mL
c1cnc2c(c1)[nH]c1ncccc12 [Compound 9, 9H-1,5-diazacarbazole]: > 5 µg/mL
c1cc2c(cn1)[nH]c1cnccc12 [Compound 8, 9H-2,7-diazacarbazole]: > 5 µg/mL
c1ccc2c(c1)[nH]c1cnccc12 [Compound 2, 9H-2-azacarbazole]: 3.33 µg/mL
Cc1ccn(C)c2nc3ccccc3c1-2 [Compound 6, 1,4-dimethyl-1H-1-azacarbazole]: 4.42 µg/mL
CCN(CC)CCCC(C)Nc1ccnc2cc(Cl)ccc12 (stereo not shown) [CQ, chloroquine diphosphate, reference compound]: 0.0184 µg/mL
Cc1ccc2[nH]c3ncccc3c2c1 [Compound 5, 6-methyl-9H-1-azacarbazole]: > 5 µg/mL
Cc1cccc2c1[nH]c1ncccc12 [Compound 4, 8-methyl-9H-1-azacarbazole]: > 5 µg/mL
c1cnc2c(c1)[nH]c1cccnc12 [Compound 10, 9H-4,5-diazacarbazole]: > 5 µg/mL
Cn1cccc2c3cccnc3nc1-2 [Compound 11, 1-methyl-1H-1,8-diazacarbazole]: > 5 µg/mL
c1cnc2[nH]c3ncccc3c2c1 [Compound 7, 9H-1,8-diazacarbazole]: > 5 µg/mL
c1ccc2c(c1)[nH]c1ccncc12 [Compound 3, 9H-3-azacarbazole]: 1.95 µg/mL

====

# method_summary: In vivo pharmacokinetic evaluation in mice
# experimental_parameters: male, CD-1, mouse, plasma, po, 0.02 mg/kg
readout: Vd/F (L/kg)

c1ccc2c(c1)[nH]c1ccncc12 [Compound 3, 9H-3-azacarbazole]: 19.7

====

# method_summary: In vivo pharmacokinetic evaluation in mice
# experimental_parameters: male, CD-1, mouse, plasma, po, 0.02 mg/kg, tmax, mice, i.g., 0.02 mg/kg in 3-NE
readout: Tmax

c1ccc2c(c1)[nH]c1ccncc12 [Compound 3, 9H-3-azacarbazole]: ≤ 5 min
